Exercise: state measured Percentage cytotoxicity for each of the substances provided.
- Test system: HBL100 (Breast) tumor cells
- assayName: MTT cytotoxicity assay, HBL100 cells
- Assay type: cell-based
- settings: 1 nM, 48 hours
* marks the point of attachment. Palmitoyl = CCCCCCCCCCCCCCCC(=O)*; Octanoyl = CCCCCCCC(=O)*; Butyryl = CCCC(=O)*
Report only the number, with the unit % understood.

Q) Note down Percentage cytotoxicity recorded for Palmitoyl-Leu-Met-Tyr-Pro-Thr-Tyr-Leu-Lys-OH (Palmitoyl-LMYPTYLK-OH) [DT-P1]
A) 25.7

Q) Note down Percentage cytotoxicity recorded for Ac-LMYPTYLK-OH [DT-A1]
A) 19.9

Q) Note down Percentage cytotoxicity recorded for n-Octanoyl-Leu-Met-Tyr-Pro-Thr-Tyr-Leu-Lys-OH (Octanoyl-LMYPTYLK-OH) [DT-O1]
A) 30.0

Q) Note down Percentage cytotoxicity recorded for n-Butanoyl-Leu-Met-Tyr-Pro-Thr-Tyr-Leu-Lys-OH (Butyryl-LMYPTYLK-OH) [DT-B1]
A) 33.0

====

- System: HBL100 (Breast) tumor cells
- assayName: MTT cytotoxicity assay, HBL100 cells
- Type: cell-based
- settings: 10 nM, 48 hours
* marks the point of attachment. Palmitoyl = CCCCCCCCCCCCCCCC(=O)*; Octanoyl = CCCCCCCC(=O)*; Butyryl = CCCC(=O)*
measurementKind: Percentage cytotoxicity (%)
Report only the number, with the unit % understood.

Q) Note down Percentage cytotoxicity recorded for Ac-LMYPTYLK-OH [DT-A1]
A) 31.9

Q) Note down Percentage cytotoxicity recorded for n-Octanoyl-Leu-Met-Tyr-Pro-Thr-Tyr-Leu-Lys-OH (Octanoyl-LMYPTYLK-OH) [DT-O1]
A) 33.7

Q) Note down Percentage cytotoxicity recorded for Palmitoyl-Leu-Met-Tyr-Pro-Thr-Tyr-Leu-Lys-OH (Palmitoyl-LMYPTYLK-OH) [DT-P1]
A) 34.9

Q) Note down Percentage cytotoxicity recorded for n-Butanoyl-Leu-Met-Tyr-Pro-Thr-Tyr-Leu-Lys-OH (Butyryl-LMYPTYLK-OH) [DT-B1]
A) 34.8

====

- Test system: HeP2 (Laryngeal) tumor cells
- assayName: MTT cytotoxicity assay, HeP2 cells
- Format: cell-based
- settings: 10 nM, 48 hours
* marks the point of attachment. Palmitoyl = CCCCCCCCCCCCCCCC(=O)*; Octanoyl = CCCCCCCC(=O)*; Butyryl = CCCC(=O)*
Exercise: state measured Percentage cytotoxicity for each of the substances provided.
Report only the number, with the unit % understood.

Q) Note down Percentage cytotoxicity recorded for Ac-LMYPTYLK-OH [DT-A1]
A) 39.9

Q) Note down Percentage cytotoxicity recorded for Palmitoyl-Leu-Met-Tyr-Pro-Thr-Tyr-Leu-Lys-OH (Palmitoyl-LMYPTYLK-OH) [DT-P1]
A) 24.9

Q) Note down Percentage cytotoxicity recorded for n-Butanoyl-Leu-Met-Tyr-Pro-Thr-Tyr-Leu-Lys-OH (Butyryl-LMYPTYLK-OH) [DT-B1]
A) 22.9

Q) Note down Percentage cytotoxicity recorded for n-Octanoyl-Leu-Met-Tyr-Pro-Thr-Tyr-Leu-Lys-OH (Octanoyl-LMYPTYLK-OH) [DT-O1]
A) 22.9

====

- System: HeP2 (Laryngeal) tumor cells
- assayName: MTT cytotoxicity assay, HeP2 cells
- Format: cell-based
- settings: 1 μM, 48 hours
* marks the point of attachment. Palmitoyl = CCCCCCCCCCCCCCCC(=O)*; Octanoyl = CCCCCCCC(=O)*; Butyryl = CCCC(=O)*
Exercise: state measured Percentage cytotoxicity for each of the substances provided.
Report only the number, with the unit % understood.

Q) Note down Percentage cytotoxicity recorded for n-Octanoyl-Leu-Met-Tyr-Pro-Thr-Tyr-Leu-Lys-OH (Octanoyl-LMYPTYLK-OH) [DT-O1]
A) 18.8

Q) Note down Percentage cytotoxicity recorded for n-Butanoyl-Leu-Met-Tyr-Pro-Thr-Tyr-Leu-Lys-OH (Butyryl-LMYPTYLK-OH) [DT-B1]
A) 12.9

Q) Note down Percentage cytotoxicity recorded for Ac-LMYPTYLK-OH [DT-A1]
A) 19.7

Q) Note down Percentage cytotoxicity recorded for Palmitoyl-Leu-Met-Tyr-Pro-Thr-Tyr-Leu-Lys-OH (Palmitoyl-LMYPTYLK-OH) [DT-P1]
A) 14.9
